Reference source for all entries: patent US20140213531A1

Kindly supply the reported % inhibition at 100 µM values for the records listed here.
target_entity: T1, Tryptase, from human lung (human, UniProt Q15661 31-275, limits assumed)
T1 construct: purified natural enzyme, bought
procedure_summary: enzyme inhibition, pNA substrate
Give a bare numeral; the unit % is implied.

Give recorded % inhibition at 100 µM. XCTASIPPQCY (HELM PEPTIDE1{[CCCCCC[C@H](N[*:1])C(=O)[*:2]].C.T.A.S.I.P.P.Q.C.Y.[dP].P}$PEPTIDE1,PEPTIDE1,2:R3-10:R3|PEPTIDE1,PEPTIDE1,1:R1-13:R2$$$V2.0; SMILES CCCCCC[C@@H]1NC(=O)[C@@H]2CCCN2C(=O)[C@H]2CCCN2C(=O)[C@H](Cc2ccc(O)cc2)NC(=O)[C@@H]2CSSC[C@H](NC1=O)C(=O)N[C@@H]([C@@H](C)O)C(=O)N[C@@H](C)C(=O)N[C@@H](CO)C(=O)N[C@@H]([C@@H](C)CC)C(=O)N1CCC[C@H]1C(=O)N1CCC[C@H]1C(=O)N[C@@H](CCC(N)=O)C(=O)N2, also called Ex. 99) [Example 99]
0

Give % inhibition at 100 µM for the following binder: XCTASXPPQCY (HELM PEPTIDE1{[Nle].C.T.A.S.[Cha].P.P.Q.C.Y.[dP].P}$PEPTIDE1,PEPTIDE1,2:R3-10:R3|PEPTIDE1,PEPTIDE1,1:R1-13:R2$$$V2.0; SMILES CCCC[C@@H]1NC(=O)[C@@H]2CCCN2C(=O)[C@H]2CCCN2C(=O)[C@H](Cc2ccc(O)cc2)NC(=O)[C@@H]2CSSC[C@H](NC1=O)C(=O)N[C@@H]([C@@H](C)O)C(=O)N[C@@H](C)C(=O)N[C@@H](CO)C(=O)N[C@@H](CC1CCCCC1)C(=O)N1CCC[C@H]1C(=O)N1CCC[C@H]1C(=O)N[C@@H](CCC(N)=O)C(=O)N2, also called Ex. 141) [Example 141]
44.5

Give me measured % inhibition at 100 µM, please, for this binder: XCTASIPPQCX (HELM PEPTIDE1{[Nle].C.T.A.S.I.P.P.Q.C.[Phg].[dP].P}$PEPTIDE1,PEPTIDE1,2:R3-10:R3|PEPTIDE1,PEPTIDE1,1:R1-13:R2$$$V2.0; SMILES CCCC[C@@H]1NC(=O)[C@@H]2CCCN2C(=O)[C@H]2CCCN2C(=O)[C@H](c2ccccc2)NC(=O)[C@@H]2CSSC[C@H](NC1=O)C(=O)N[C@@H]([C@@H](C)O)C(=O)N[C@@H](C)C(=O)N[C@@H](CO)C(=O)N[C@@H]([C@@H](C)CC)C(=O)N1CCC[C@H]1C(=O)N1CCC[C@H]1C(=O)N[C@@H](CCC(N)=O)C(=O)N2, also called Ex. 136) [Example 136]
0
